EXPERIMENT DESCRIPTION: HRE-luciferase activation under added iron, dose response, mechanism study for HIF activator project, cell-based, iron medium, luminescence, U2OS, dry powder (AID 493228)
STUDY CONDITIONS: U2OS HRE-luciferase reporter, iron medium, luminescence; at 38 µM (top of the series)
Results filed as inconclusive are left out.
ATTRIBUTE MEASURED: activation (%)
Note: unit % is implicit; provide only the numeric part.

Below: 3 molecules and their reported activation.
c1ccc(-c2nnc(-c3ccccn3)nc2NCC2CCOCC2)cc1 | 226
OCC1CCN(Cc2ccc(O)c3ncccc23)CC1 | -91.5
Cc1ccc(NC(=O)c2cc(-c3ccccc3)on2)cn1 | -1.64

[in] What activation value was documented for this molecule, Cc1cccc(NC(=O)c2cc(-c3ccccc3)on2)n1 ?
[out] 47.5

[in] What activation value was documented for this molecule, CN(C)c1nc(-c2ccccn2)nnc1-c1ccccc1 ?
[out] 80.9

[in] What activation value was documented for this molecule, O=C(c1cc(-c2ccccc2)on1)N1CCN(c2ccncc2)CC1 ?
[out] -9.52

[in] What activation value was documented for this molecule, Oc1ccc(CN2CCC(Cc3ccccc3)CC2)c2cccnc12 ?
[out] 27

[in] What activation value was documented for this molecule, O=C(Nc1nc2ccccc2s1)c1cc(-c2ccccc2)on1 ?
[out] 22.7

[in] What activation value was documented for this molecule, O=C(c1cc(-c2ccccc2)on1)N1CCC(N2CCOCC2)CC1 ?
[out] 9.93

[in] What activation value was documented for this molecule, CC1CN(Cc2ccc(O)c3ncccc23)CC(C)O1 (configuration not stated) ?
[out] -85.2

[in] What activation value was documented for this molecule, Cn1c(-c2ccccc2)cnc1NC(=O)c1cc(-c2ccccc2)on1 ?
[out] 23.2

[in] What activation value was documented for this molecule, Cc1cccc(Nc2nc(-c3ccccn3)nnc2-c2ccccc2)n1 ?
[out] 306
